# credit: the supplement of paper PMC10567573

B1: KLHL12 (parent)
chain: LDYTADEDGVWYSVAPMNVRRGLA

Variants of: B1
Test Protocol: protein stability index of a GFP-peptide fusion (GPS, HEK-293T) (PSI 1-6); higher = more stable;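 also: lentivirally expressed fusions sorted by FACS into six bins by GFP to DsRed ratio, PSI derived from sequencing read proportions per bin multiplied by bin number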
Run Parameters: c terminus: a fixed tail appended
Kindly return Criterion met if reported protein stability index is no lower than 2; return Criterion not met if it is lower.

Mutation Label: D6S
Answer Label: Criterion not met
//
Mutation Label: L23N
Answer Label: Criterion met
//
Mutation Label: D8F
Answer Label: Criterion not met
//
Mutation Label: W11C
Answer Label: Criterion met
//
Mutation Label: Y12Q
Answer Label: Criterion met
//
Mutation Label: Y12R
Answer Label: Criterion met
//
Mutation Label: A5C
Answer Label: Criterion not met
//
Mutation Label: R20Q
Answer Label: Criterion not met
//
Mutation Label: S13M
Answer Label: Criterion not met
//
Mutation Label: N18G
Answer Label: Criterion met
//
Mutation Label: M17S
Answer Label: Criterion met
//
Mutation Label: T4H
Answer Label: Criterion not met
//
Mutation Label: V19W
Answer Label: Criterion not met
//
Mutation Label: A15S
Answer Label: Criterion not met
//
Mutation Label: A24F
Answer Label: Criterion met
//
Mutation Label: Y12K
Answer Label: Criterion met
//
Mutation Label: P16L
Answer Label: Criterion met
//
Mutation Label: V19S
Answer Label: Criterion met
//
Mutation Label: T4M
Answer Label: Criterion met
//
Mutation Label: A5I
Answer Label: Criterion met
//
Mutation Label: N18P
Answer Label: Criterion met
